The reported measurements were obtained from PubChem BioAssay AID1963447.

# viability, T/C listing for each entry below
# Tested on: 885512-296-R-J2-PDC complex spheroid growth, % test/control;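 also: spheroids exposed to compounds for seven days; 100% = DMSO vehicle control wells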
# experimental details: Anticancer human tumor 885512-296-R-J2-PDC patient-derived breast carcinoma cell line growth inhibition [Asc]
# experimental context: second compound 0.316 µM; first compound 0.0316 µM; stronger effect = lower value

compound: CCN1CCN(Cc2ccc(Nc3ncc(F)c(-c4cc(F)c5nc(C)n(C(C)C)c5c4)n3)nc2)CC1 + CNC(C)C(=O)NC1CN(S(=O)(=O)c2cccc(S(=O)(=O)N3CCC4CCC(C(=O)NC(c5ccccc5)c5ccccc5)N4C(=O)C(NC(=O)C(C)NC)C3)c2)CCC2CCC(C(=O)NC(c3ccccc3)c3ccccc3)N2C1=O
viability, T/C: 103%
//
compound: CNC(C)C(=O)NC1CN(S(=O)(=O)c2cccc(S(=O)(=O)N3CCC4CCC(C(=O)NC(c5ccccc5)c5ccccc5)N4C(=O)C(NC(=O)C(C)NC)C3)c2)CCC2CCC(C(=O)NC(c3ccccc3)c3ccccc3)N2C1=O (stereo not drawn) + Cc1c(S(C)(=O)=O)c(-c2cc(F)cc(N3CCN(c4ccc(NS(=O)(=O)c5ccc(NC(CCN6CCC(C(=O)OCCCP(=O)(O)O)CC6)CSc6ccccc6)c(S(=O)(=O)C(F)(F)F)c5)cc4)CC3)c2)c(-c2ccc(Cl)cc2)n1C(C)C
viability, T/C: 107%
//
compound: C=C(F)C(=O)N1CCN(c2nc(OCC3CCCN3C)nc3c2CCN(c2cccc4cccc(Cl)c24)C3)CC1CC#N (stereo not drawn) + CNC(C)C(=O)NC1CN(S(=O)(=O)c2cccc(S(=O)(=O)N3CCC4CCC(C(=O)NC(c5ccccc5)c5ccccc5)N4C(=O)C(NC(=O)C(C)NC)C3)c2)CCC2CCC(C(=O)NC(c3ccccc3)c3ccccc3)N2C1=O
viability, T/C: 110%
